- System: #Probio-16
- ASSAY_COMMENT: Antibiotic susceptibility of #Probio-16 (paper disc)
- Assay type: cell-based, Lactobacillus reuteri
- EXPERIMENTAL_CONTEXT: Limosilactobacillus reuteri; against #Probio-16, 24 hours anaerobic incubation (Table 3); read-out: MIC

{"SMILES_DATA": "C=C[C@]1(C)C[C@@H](OC(=O)CSCCN(CC)CC)[C@]2(C)[C@H](C)CC[C@]3(CCC(=O)[C@H]32)[C@@H](C)[C@@H]1O", "TARGET_OR_SYSTEM": "#Probio-16", "VALUE_UNIT": "µg/mL", "MIC": 300}
{"SMILES_DATA": "CC[C@H]1OC(=O)[C@H](C)[C@@H](O[C@H]2C[C@@](C)(OC)[C@@H](O)[C@H](C)O2)[C@H](C)[C@@H](O[C@@H]2O[C@H](C)C[C@H](N(C)C)[C@H]2O)[C@](C)(O)C[C@@H](C)C(=O)[C@H](C)[C@@H](O)[C@]1(C)O", "TARGET_OR_SYSTEM": "#Probio-16", "VALUE_UNIT": "µg/mL", "MIC": 4}
{"SMILES_DATA": "CN(C)[C@@H]1C(O)=C(C(N)=O)C(=O)[C@@]2(O)C(O)=C3C(=O)c4c(O)cccc4[C@@](C)(O)[C@H]3C[C@@H]12", "TARGET_OR_SYSTEM": "#Probio-16", "VALUE_UNIT": "µg/mL", "MIC": 1500}
{"SMILES_DATA": "CN[C@@H]1[C@H](O)[C@H](NC)[C@H]2O[C@@]3(O)C(=O)C[C@@H](C)O[C@H]3O[C@@H]2[C@H]1O", "TARGET_OR_SYSTEM": "#Probio-16", "VALUE_UNIT": "µg/mL", "MIC": 2500}
{"SMILES_DATA": "O=C(N[C@H](CO)[C@H](O)c1ccc([N+](=O)[O-])cc1)C(Cl)Cl", "TARGET_OR_SYSTEM": "#Probio-16", "VALUE_UNIT": "µg/mL", "MIC": 200}
{"SMILES_DATA": "NC[C@H]1O[C@H](O[C@H]2[C@H](O)[C@@H](O[C@H]3O[C@H](CO)[C@@H](O)[C@H](N)[C@H]3O)[C@H](N)C[C@@H]2N)[C@H](O)[C@@H](O)[C@@H]1O", "TARGET_OR_SYSTEM": "#Probio-16", "VALUE_UNIT": "µg/mL", "MIC": 4000}

====

Reported minimal inhibitory concentration (MIC) values are given for each entry in this list.
- System: #Probio-16
- ASSAY_COMMENT: Antibiotic susceptibility of #Probio-16 (paper disc)
- Format: cell-based, Lactobacillus reuteri
- EXPERIMENTAL_CONTEXT: against Lactobacillus reuteri Probio-16

{"SMILES_DATA": "NC[C@@H]1O[C@H](O[C@H]2[C@@H](O)[C@H](O[C@@H]3[C@@H](O)[C@H](N)C[C@H](N)[C@H]3O[C@H]3O[C@H](CN)[C@@H](O)[C@H](O)[C@H]3N)O[C@@H]2CO)[C@H](N)[C@@H](O)[C@@H]1O", "minimal inhibitory concentration (MIC) [µg/mL]": 100}
{"SMILES_DATA": "CC1=C(C(=O)O)N2C(=O)[C@@H](NC(=O)[C@H](N)c3ccccc3)[C@H]2SC1", "minimal inhibitory concentration (MIC) [µg/mL]": 90}
{"SMILES_DATA": "O=C1OCCN1/N=C/c1ccc([N+](=O)[O-])o1", "minimal inhibitory concentration (MIC) [µg/mL]": 90}

====

Reported MIC values are given for each entry in this list.
- Test system: #Probio-16
- ASSAY_COMMENT: Antibiotic susceptibility of #Probio-16 (paper disc)
- Type: cell-based, Lactobacillus reuteri
- EXPERIMENTAL_CONTEXT: Limosilactobacillus reuteri; against Lactobacillus reuteri Probio-16; read-out: minimal inhibitory concentration (MIC)

{"SMILES_DATA": "C=C[C@]1(C)C[C@@H](OC(=O)CSCCN(CC)CC)[C@]2(C)[C@H](C)CC[C@]3(CCC(=O)[C@H]32)[C@@H](C)[C@@H]1O", "MIC, µg/mL": 300}
{"SMILES_DATA": "O=C(N[C@H](CO)[C@H](O)c1ccc([N+](=O)[O-])cc1)C(Cl)Cl", "MIC, µg/mL": 200}
{"SMILES_DATA": "CN[C@@H]1[C@H](O)[C@H](NC)[C@H]2O[C@@]3(O)C(=O)C[C@@H](C)O[C@H]3O[C@@H]2[C@H]1O", "MIC, µg/mL": 2500}

====

Reported MIC values are given for each entry in this list.
- System: #Probio-16
- ASSAY_COMMENT: Antibiotic susceptibility of #Probio-16 (paper disc)
- Type: cell-based, Lactobacillus reuteri
- EXPERIMENTAL_CONTEXT: Limosilactobacillus reuteri; against Lactobacillus reuteri Probio-16; read-out: minimal inhibitory concentration (MIC)
READOUT_NAME: MIC (mg/L)

{"SMILES_DATA": "NC[C@H]1O[C@H](O[C@H]2[C@H](O)[C@@H](O[C@H]3O[C@H](CO)[C@@H](O)[C@H](N)[C@H]3O)[C@H](N)C[C@@H]2N)[C@H](O)[C@@H](O)[C@@H]1O", "TARGET_OR_SYSTEM": "#Probio-16", "READOUT_NAME": "MIC", "OBSERVED_VALUE": 4000}
{"SMILES_DATA": "CN(C)[C@@H]1C(O)=C(C(N)=O)C(=O)[C@@]2(O)C(O)=C3C(=O)c4c(O)cccc4[C@@](C)(O)[C@H]3C[C@@H]12", "TARGET_OR_SYSTEM": "#Probio-16", "READOUT_NAME": "MIC", "OBSERVED_VALUE": 1500}
{"SMILES_DATA": "CC[C@H]1OC(=O)[C@H](C)[C@@H](O[C@H]2C[C@@](C)(OC)[C@@H](O)[C@H](C)O2)[C@H](C)[C@@H](O[C@@H]2O[C@H](C)C[C@H](N(C)C)[C@H]2O)[C@](C)(O)C[C@@H](C)C(=O)[C@H](C)[C@@H](O)[C@]1(C)O", "TARGET_OR_SYSTEM": "#Probio-16", "READOUT_NAME": "MIC", "OBSERVED_VALUE": 4}
